Data provenance is patent US20140072563A1.

Molecular target: T1, hErbB3.mFc (soluble dimeric human ErbB3 extracellular domain fused to mouse Fc) (human)
T1 construct: called dimeric
T1 chain: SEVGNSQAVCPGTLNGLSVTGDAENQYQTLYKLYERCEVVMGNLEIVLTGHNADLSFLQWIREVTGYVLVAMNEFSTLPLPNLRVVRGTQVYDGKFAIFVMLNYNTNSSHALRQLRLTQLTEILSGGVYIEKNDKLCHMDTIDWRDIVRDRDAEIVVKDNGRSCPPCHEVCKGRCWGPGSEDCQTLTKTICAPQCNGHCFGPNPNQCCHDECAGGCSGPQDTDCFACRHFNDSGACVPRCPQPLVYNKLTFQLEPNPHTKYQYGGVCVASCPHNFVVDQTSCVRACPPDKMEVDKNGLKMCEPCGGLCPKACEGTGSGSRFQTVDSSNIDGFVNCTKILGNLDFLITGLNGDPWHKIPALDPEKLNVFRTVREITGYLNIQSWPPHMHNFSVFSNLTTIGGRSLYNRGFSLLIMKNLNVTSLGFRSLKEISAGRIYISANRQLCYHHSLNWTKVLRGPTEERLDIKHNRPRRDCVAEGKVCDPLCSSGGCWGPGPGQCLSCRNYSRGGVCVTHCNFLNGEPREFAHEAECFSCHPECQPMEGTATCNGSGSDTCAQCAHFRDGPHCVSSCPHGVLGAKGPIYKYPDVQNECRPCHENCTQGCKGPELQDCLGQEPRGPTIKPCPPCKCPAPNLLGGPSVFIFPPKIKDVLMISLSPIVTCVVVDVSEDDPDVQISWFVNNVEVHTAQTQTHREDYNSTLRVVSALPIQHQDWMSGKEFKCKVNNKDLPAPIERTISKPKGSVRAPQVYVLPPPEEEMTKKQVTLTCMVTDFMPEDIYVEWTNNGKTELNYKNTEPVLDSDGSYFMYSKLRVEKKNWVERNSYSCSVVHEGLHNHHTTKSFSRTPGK
Assay: SPR (Biacore), 25 C, mAb capture format
Parameter measured: kon (M⁻¹ s⁻¹)
Just the number in M⁻¹ s⁻¹, nothing appended.

| Binder | Display unit | kon |
| --- | --- | --- |
| H4H2111P (antibody, V domains shown, Fully human, human IgG4 Fc (H4H prefix)) VH: QVQLVESGGGVVQPGRSLRLSCAASGFTFNNYGMHWVRQAPGKGLAWVAVMWYSESHKYYADSVKGRFTISRDNSKNTLYLEMNSLRVEDTAIYYCARDLGDPDAFDIWGQGTMVTVSS VL: DIQLTQSPSFLSASVGDRVTITCWASQGISSYLAWYQQKPGKAPKLLIYGASTLQSGVPSRFSGSGSGTEFTLTISSLQPEDFATYYCQQLNSYPLTFGGGTKVEIKR | M⁻¹ s⁻¹ | 3.5e+06 |

Q: Given the binder H4H2151P (antibody, V domains shown, Fully human, human IgG4 Fc (H4H prefix)) VH: QVQLVESGGGVVQPGRSLRLSCAASGFTFSNYGMHWVRQAPGKGLEWVARIWYDGSNKYYADSVKGRFTISRDSSKNTLYLQMNSLRAEDTAVYYCAREGEQNLDYYPLDVWGQGTTVTVSS VL: DIVMTQSPSSLSASVGDRVTITCRASQDIRNDLGWYQQKPGKAPKLLIYAASSLQTGVPSRFSGSVSGTDFTLTISSLQPEDFATYYCLQDYTYPLTFGGGTKVEIK , what is its reported kon?
A: 4.48e+06

Q: How about H4H2102P (antibody, V domains shown, Fully human, human IgG4 Fc (H4H prefix)) VH: EVQLVESGGGLVQPGGSLRLSCAASGFTFSNYDIHWVRQATGKGLEWVSAIGPAGDTYYSDSVKGRFTISREDAKNSLYLQMSSLRAGDTAVYYCASEGIAVRPDDYYGMDVWGQGTTVTVSA VL: DIQLTQSPSFLSASVGDRVTITCWASQDITSYLAWYQKKPGKAPKLLIYAASTLQSGVPSRFSGSGSGTEFTLTISSLQPEDFAAYYCQQLNSYPLTFGGGTKVDIKR ?
A: 1.58e+06
